Item-by-item account of IC50
molecular target: Lanosterol 14-alpha demethylase (Candida albicans (strain SC5314 / ATCC MYA-2876) (Yeast)); assay: Inhibition of CYP51 in Candida albicans SC5314 using lanosterol as substrate incubated for 60 mins by HPLC analysis
Sequence (P10613 whole entry): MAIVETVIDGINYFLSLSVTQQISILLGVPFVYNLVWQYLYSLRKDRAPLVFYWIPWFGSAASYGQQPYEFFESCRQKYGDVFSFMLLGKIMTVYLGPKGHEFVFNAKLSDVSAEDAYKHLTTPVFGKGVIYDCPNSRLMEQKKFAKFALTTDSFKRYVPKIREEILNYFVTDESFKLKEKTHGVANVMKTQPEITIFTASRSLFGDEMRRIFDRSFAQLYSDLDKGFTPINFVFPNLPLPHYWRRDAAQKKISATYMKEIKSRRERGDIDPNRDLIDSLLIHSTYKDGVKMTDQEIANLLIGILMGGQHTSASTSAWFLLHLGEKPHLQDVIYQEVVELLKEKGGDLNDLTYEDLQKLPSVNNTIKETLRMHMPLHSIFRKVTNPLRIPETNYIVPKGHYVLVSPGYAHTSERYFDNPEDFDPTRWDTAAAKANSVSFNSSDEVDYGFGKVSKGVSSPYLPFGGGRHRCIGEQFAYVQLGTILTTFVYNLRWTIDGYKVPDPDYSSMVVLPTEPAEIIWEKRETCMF
Report the value in µM with no unit label.

Answered examples (3):
Cc1c(CN2CCCC(C(=O)N[C@H](Cn3cncn3)C(=O)OC(C)C)C2)cccc1-c1ccccc1 (some centres undefined) :: 0.32
CC(C)OC(=O)[C@@H](Cn1ccnc1)NC(=O)C1CCCN(C(=O)c2cccc(-c3ccccc3)c2)C1 (some centres undefined) :: 0.41
CC(=O)N1CCN(c2ccc(OCC3COC(Cn4ccnc4)(c4ccc(Cl)cc4Cl)O3)cc2)CC1 (centres undefined) :: 0.13

Pending compound:
Name the recorded IC50 of COC(=O)[C@@H](Cn1cncn1)NCc1cccc(OCc2cccc(-c3ccccc3)c2C)c1 , assay system Lanosterol 14-alpha demethylase (Candida albicans (strain SC5314 / ATCC MYA-2876) (Yeast)).
0.17

###

system: Nakaseomyces glabratus; experiment: Antifungal activity against Candida glabrata assessed as fungal growth inhibition incubated for 72 hrs by CLSI based susceptibility test; format: functional
Item-by-item account of MIC50
Report the value in µg/mL with no unit label.

Answered examples (3):
CCOC(=O)[C@@H](Cn1cncn1)NCc1cccc(OCc2cccc(-c3ccccc3)c2C)c1 :: 0.25
CCOC(=O)[C@@H](Cn1ccnc1)NC(=O)C1CCCN(Cc2cccc(-c3ccccc3)c2C)C1 (some centres undefined) :: 0.5
COC(=O)[C@@H](Cn1cncn1)NC(=O)C1CCCN(Cc2cccc(-c3ccccc3)c2C)C1 (some centres undefined) :: 2

Identify measured MIC50 corresponding to Cc1c(CN2CCCC(C(=O)N[C@H](Cn3cncn3)C(=O)OC(C)C)C2)cccc1-c1ccccc1 (some centres undefined)
0.5

Identify measured MIC50 corresponding to CCOC(=O)[C@@H](Cn1ccnc1)NC(=O)C1CCCN(C(=O)c2cccc(-c3ccccc3)c2)C1 (some centres undefined)
1

Identify measured MIC50 corresponding to CC(=O)N1CCN(c2ccc(OCC3COC(Cn4ccnc4)(c4ccc(Cl)cc4Cl)O3)cc2)CC1 (centres undefined)
1

Identify measured MIC50 corresponding to OC(Cn1cncn1)(Cn1cncn1)c1ccc(F)cc1F
0.25

Identify measured MIC50 corresponding to COC(=O)[C@@H](Cn1ccnc1)NC(=O)C1CCCN(C(=O)c2cccc(-c3ccccc3)c2)C1 (some centres undefined)
0.5

Identify measured MIC50 corresponding to COC(=O)[C@@H](Cn1cncn1)NCc1cccc(OCc2cccc(-c3ccccc3)c2C)c1
0.125

Where do the numbers come from? From ChEMBL document CHEMBL5365529.
